Where do the numbers come from? From patent US20110300156A1.

Target: T1, human tissue factor (TF), membrane-bound on cells (human, UniProt P13726 33-295)
T1 construct: whole, on cells; also called cellular TF
Experiment: FACS, Bx-PC3 cells
Measurement type: EC50 (nM)

| Binder | Reported value |
| --- | --- |
| anti-TF HuMab 087-Lg6 (antibody, V domains shown, Human monoclonal antibody from HuMab mice) VH: EVQLVQSGAEVKKPGESLKISCKGSGYSFTSCWIGWVRQMPGKGLEWMGIIYPGDSDTRYSPSFQGQVTISADKSISTAYLQWSSLKASDTAMYYCARHKLGMDHDAFDIWGQGTMVTVSS VL: DIQMTQSPSSLSASVGDRVTITCRASQGISSWLAWYQQKPEKAPKSLIYAASSLQSGVPSRFSGSGSGTDFTLTISSLQPEDFATYYCQQYNSYPPTFGQGTTVEVK | 7.19 |
| anti-TF HuMab 025 (antibody, V domains shown, Human monoclonal antibody from HuMab mice) VH: QVQLVESGGGVVQPGRSLRLSCAASGFTFSRYAMHWVRQAPGKGLEWVAVISNDGYNDYYADSVKGRFTVSRDNSKNTLYLQMNSLRAEDTAVYYCARDGQLGRGYFDYWGQGTLVTVSS VL: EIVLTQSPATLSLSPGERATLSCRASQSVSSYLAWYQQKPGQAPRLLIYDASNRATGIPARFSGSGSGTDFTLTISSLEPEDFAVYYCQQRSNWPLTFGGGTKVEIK | 0.88 |
| anti-TF HuMab 044 (antibody, V domains shown, Human monoclonal antibody from HuMab mice) VH: QVQLVESGGGVVQPGRSLRLSCAASGFTFSDYAMHWVRQAPGKGLEWVAVIPYDGDNKYYADSVKGRFTISRDNSKNTLYLQMNSLRAEDTAVYYCAREDWGLEVDYWGQGALVTVSS VL: AIQLTQSPSSLSASVGDRVTITCRASQGINSALAWYQQKPGKAPKLLIYDASSLESGVPSRFSGSGSGTDFTLTISSLQPEDFATYYCQQFNSYPLTFGGGTKVEIK | 1.88 |
